These entries and their values trace back to ChEMBL document CHEMBL1131207.

Readings of ED50 for the listed compounds
target: Platelet-activating factor receptor (Rattus norvegicus); assay: Tested in vivo for to block the effect of exogenously administered PAF upon oral administration in PAF-induced rat skin permeability assay; format: functional, organism-based
Give the value in mg/kg but do not write mg/kg after it.

Recorded results for 8 compounds are shown here.
Smiles Data	ED50 (mg/kg)
COC(=O)c1cccc2c1c(C(=O)c1ccc(Cn3c(C)nc4cnccc43)cc1)cn2CC(=O)N(C)C	2.4
COC(=O)c1cccc2c1c(C(=O)c1ccc(Cn3c(C)nc4cnccc43)c(F)c1)cn2C(=O)N(C)C	0.36
COC(=O)c1ccc(C(=O)OC)c2c(C(=O)c3ccc(Cn4c(C)nc5cnccc54)cc3)c[nH]c12	0.71
COC(=O)c1cc(C#Cc2ccccc2)cc2c1c(C(=O)c1ccc(Cn3c(C)nc4cnccc43)cc1)cn2C(=O)N(C)C	0.6
COc1cccc2c1c(C(=O)c1ccc(Cn3c(C)nc4cnccc43)cc1)cn2C(=O)N(C)C	0.22
Cc1cccc2c1c(C(=O)c1ccc(Cn3c(C)nc4cnccc43)cc1)cn2C(=O)N(C)C	0.2
COC(=O)c1cc(Br)cc2c1c(C(=O)c1ccc(Cn3c(C)nc4cnccc43)cc1)cn2C(=O)N(C)C	0.83
Cc1cccc2c1c(C(=O)CN1CCC(n3c(C)nc4cnccc43)CC1)cn2C(=O)N(C)C	0.14

### Prompt Give its ED50 value. Item: `Cc1nc2cnccc2n1Cc1ccc(C(=O)c2cn(C(=O)N(C)C)c3cccc(-c4ccco4)c23)cc1`
### Response 0.79

### Prompt Give its ED50 value. Item: `COC(=O)c1cccc2c1c(C(=O)c1ccc(Cn3c(C)nc4cnccc43)cc1)cn2C(=O)N(C)C`
### Response 0.22

### Prompt Give its ED50 value. Item: `Cc1nc2cnccc2n1Cc1ccc(C(=O)c2cn(C(=O)N(C)C)c3cccc(Cl)c23)cc1`
### Response 0.12

### Prompt Give its ED50 value. Item: `Cc1nc2cnccc2n1Cc1ccc(C(=O)c2cn(C(=O)N(C)C)c3cccc(OC(=O)N(C)C)c23)cc1`
### Response 0.34

### Prompt Give its ED50 value. Item: `C#Cc1cccc2c1c(C(=O)c1ccc(Cn3c(C)nc4cnccc43)c(F)c1)cn2C(=O)N(C)C`
### Response 0.094

* * *

target: Platelet-activating factor receptor (Rattus norvegicus) (UniProt P46002); assay: Ability to block the effect of exogenously administered PAF upon intravenous administration in PAF-induced rat skin permeability assay; format: functional, organism-based
Sequence (P46002 whole entry): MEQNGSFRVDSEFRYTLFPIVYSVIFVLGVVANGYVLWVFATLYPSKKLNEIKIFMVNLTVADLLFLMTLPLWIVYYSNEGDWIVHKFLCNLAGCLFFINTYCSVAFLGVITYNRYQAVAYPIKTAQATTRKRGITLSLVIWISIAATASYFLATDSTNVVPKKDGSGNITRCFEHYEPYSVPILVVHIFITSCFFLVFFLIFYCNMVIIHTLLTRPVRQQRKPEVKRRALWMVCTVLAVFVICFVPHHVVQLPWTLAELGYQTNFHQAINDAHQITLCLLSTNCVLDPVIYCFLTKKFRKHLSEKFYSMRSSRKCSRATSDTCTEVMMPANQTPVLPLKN
Measured Property: ED50 (mg/kg)
Give the value in mg/kg but do not write mg/kg after it.

Cc1nc2cnccc2n1Cc1ccc(C(=O)c2cn(C(=O)N(C)C)c3cccc(C(=O)OCc4ccccc4)c23)cc1 0.12

### Prompt Give its ED50 value. Item: `COC(=O)c1cc(-c2ccc(F)cc2)cc2c1c(C(=O)c1ccc(Cn3c(C)nc4cnccc43)cc1)cn2C(=O)N(C)C`
### Response 0.002

### Prompt Give its ED50 value. Item: `Cc1nc2cnccc2n1CC1CCN(C(=O)c2cn(C(=O)N(C)C)c3cc(-c4ccc(F)cc4)ccc23)CC1`
### Response 0.022

### Prompt Give its ED50 value. Item: `Cc1nc2cnccc2n1Cc1ccc(C(=O)c2c[nH]c3c(OCc4ccccc4)cccc23)cc1`
### Response 0.24

* * *

Readings of ED50 for the listed compounds
molecular target: Platelet-activating factor receptor (Rattus norvegicus) (UniProt P46002); assay: Ability to block the effect of exogenously administered PAF upon intravenous administration in PAF-induced rat skin permeability assay; type: functional, organism-based

Cc1nc2cnccc2n1C1CCN(C(=O)c2cn(C(=O)N(C)C)c3cc(-c4ccc(F)cc4)ccc23)CC1 > 1 mg/kg
COC(=O)c1cccc2c1c(C(=O)c1ccc(Cn3c(C)nc4cnccc43)cc1)cn2CC(=O)C(C)(C)C 0.036 mg/kg
COC(=O)c1cccc2c1c(C(=O)c1ccc(Cn3c(C)nc4ccccc43)cc1)cn2C(=O)N1CCCC1 1 mg/kg

### Prompt Tell me reported ED50 for `Cc1nc2cnccc2n1Cc1csc(C(=O)c2cn(C(=O)N(C)C)c3cc(-c4ccc(F)cc4)ccc23)n1` , tested with Platelet-activating factor receptor (Rattus norvegicus) (UniProt P46002).
### Response 0.35 mg/kg

### Prompt Tell me reported ED50 for `Cc1nc2cnccc2n1Cc1ccc(C(=O)c2cn(C(=O)N(C)C)c3cccc(-c4ccco4)c23)cc1` , tested with Platelet-activating factor receptor (Rattus norvegicus) (UniProt P46002).
### Response 0.007 mg/kg

### Prompt Tell me reported ED50 for `Cc1nc2cnccc2n1Cc1ccc(C(=O)c2cn(C(=O)N(C)C)c3cccc(-c4ccc(F)cc4)c23)cc1` , tested with Platelet-activating factor receptor (Rattus norvegicus) (UniProt P46002).
### Response 0.004 mg/kg

### Prompt Tell me reported ED50 for `COC(=O)c1[nH]c2cccc(OC)c2c1C(=O)c1ccc(Cn2c(C)nc3cnccc32)cc1` , tested with Platelet-activating factor receptor (Rattus norvegicus) (UniProt P46002).
### Response 0.65 mg/kg

### Prompt Tell me reported ED50 for `C#Cc1cccc2[nH]cc(C(=O)c3ccc(Cn4c(C)nc5cnccc54)c(F)c3)c12` , tested with Platelet-activating factor receptor (Rattus norvegicus) (UniProt P46002).
### Response 0.018 mg/kg

### Prompt Tell me reported ED50 for `Cc1nc2cnccc2n1Cc1ccc(C(=O)c2c[nH]c3cc(-c4ccc(F)cc4)ccc23)cc1` , tested with Platelet-activating factor receptor (Rattus norvegicus) (UniProt P46002).
### Response 1.3 mg/kg

### Prompt Tell me reported ED50 for `COC(=O)c1cccc2c1c(C(=O)c1ccc(Cn3c(C)nc4ccccc43)cc1)cn2C(=O)N(C)C` , tested with Platelet-activating factor receptor (Rattus norvegicus) (UniProt P46002).
### Response > 1 mg/kg

### Prompt Tell me reported ED50 for `COC(=O)c1cccc2c1c(C(=O)c1ccc(Cn3c(C)nc4cnccc43)c(F)c1)cn2C(=O)N(C)C` , tested with Platelet-activating factor receptor (Rattus norvegicus) (UniProt P46002).
### Response 0.006 mg/kg

### Prompt Tell me reported ED50 for `Cc1nc2cnccc2n1Cc1ccc(C(=O)c2cn(C(=O)N(C)C)c3cccc(C#N)c23)cc1` , tested with Platelet-activating factor receptor (Rattus norvegicus) (UniProt P46002).
### Response 0.23 mg/kg

### Prompt Tell me reported ED50 for `Cc1nc2cnccc2n1Cc1ccc(S(=O)(=O)c2cn(C(=O)N(C)C)c3ccccc23)cc1` , tested with Platelet-activating factor receptor (Rattus norvegicus) (UniProt P46002).
### Response > 1 mg/kg

### Prompt Tell me reported ED50 for `COC(=O)c1cccc2c1c(C(=O)c1ccc(Cn3c(C)nc4ncccc43)cc1)cn2C(=O)N(C)C` , tested with Platelet-activating factor receptor (Rattus norvegicus) (UniProt P46002).
### Response 0.026 mg/kg

* * *

target: Platelet-activating factor receptor (Rattus norvegicus) (UniProt P46002); assay: Ability to block the effect of exogenously administered PAF upon intravenous administration in PAF-induced rat skin permeability assay; type: functional, organism-based
Readings of ED50 for the listed compounds
Give the value in mg/kg but do not write mg/kg after it.

COC(=O)c1cccc2c1c(C(=O)c1ccc(Cn3c(C)nc4cnccc43)cc1)cn2S(=O)(=O)N(C)C 0.074
Cc1nc2cnccc2n1Cc1ccc(C(=O)c2cn(C(=O)N(C)C)c3cccc(Br)c23)cc1 0.007

Consider the record given below.
### Prompt Give its ED50 value. Item: `COC(=O)c1cccc2c1c(C(=O)CCCCCn1c(C)nc3cnccc31)cn2C(=O)N(C)C`
### Response 0.013

* * *

biological target: Platelet-activating factor receptor (Rattus norvegicus); assay: Tested in vivo for to block the effect of exogenously administered PAF upon oral administration in PAF-induced rat skin permeability assay; assay type: functional, organism-based
Measured Property: ED50

Recorded results for 4 molecules are shown here.
Molecule	Measured Property	Reading
COC(=O)c1cccc2c1c(C(=O)C1CCC(Cn3c(C)nc4cnccc43)CC1)cn2C(=O)N(C)C (configuration not stated)	ED50	> 1 mg/kg
COC(=O)c1cc(-c2ccc(F)cc2)cc2c1c(C(=O)c1ccc(Cn3c(C)nc4cnccc43)cc1)cn2C(=O)N(C)C	ED50	0.64 mg/kg
Cc1nc2cnccc2n1CC1CCN(C(=O)c2cn(C(=O)N(C)C)c3cc(-c4ccc(F)cc4)ccc23)CC1	ED50	2.2 mg/kg
CCOC(=O)c1cccc2c1c(C(=O)c1ccc(Cn3c(C)nc4cnccc43)cc1)cn2C(=O)N(C)C	ED50	> 1 mg/kg

### Prompt Give its ED50 value. Item: `COC(=O)c1cccc2c1c(C(=O)Cc1ccc(-n3c(C)nc4cnccc43)cc1)cn2C(=O)N(C)C`
### Response 0.17 mg/kg

### Prompt Give its ED50 value. Item: `CCOCCn1cc(C(=O)c2ccc(Cn3c(C)nc4cnccc43)cc2)c2c(C(=O)OC)cccc21`
### Response 1.1 mg/kg

### Prompt Give its ED50 value. Item: `Cc1nc2cnccc2n1Cc1ccc(C(=O)c2cn(C(=O)N(C)C)c3cccc(-c4ccc(F)cc4)c23)cc1`
### Response 0.45 mg/kg
